# tgt: ADP-ribose glycohydrolase MACROD2 (Homo sapiens, UniProt A1Z1Q3)
# Sequence (A1Z1Q3 whole entry, the tested form may be a part): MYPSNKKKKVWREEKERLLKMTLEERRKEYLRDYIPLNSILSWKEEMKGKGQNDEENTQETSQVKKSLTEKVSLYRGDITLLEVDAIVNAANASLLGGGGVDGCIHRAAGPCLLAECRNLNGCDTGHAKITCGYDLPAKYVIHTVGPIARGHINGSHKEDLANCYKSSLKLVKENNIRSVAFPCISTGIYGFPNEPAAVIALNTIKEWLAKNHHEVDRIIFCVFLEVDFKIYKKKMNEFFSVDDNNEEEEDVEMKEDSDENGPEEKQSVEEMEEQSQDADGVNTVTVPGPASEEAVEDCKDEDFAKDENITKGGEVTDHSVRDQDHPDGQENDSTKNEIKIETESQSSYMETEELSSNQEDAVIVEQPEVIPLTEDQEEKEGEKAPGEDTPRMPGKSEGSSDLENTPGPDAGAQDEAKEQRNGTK
# procedure text: Inhibition of N-terminal His-TEV-V5 tagged human Mdo2 (7 to 243 residues) expressed in Escherichia coli BL21 (DE3) using BIO-6His tagged linker peptide as substrate by Alphascreen assay
# Assay type: toxicity
pIC50: −log10 of the molar value.
For each record, write down the corresponding pIC50.

Exam item: Dear colleague, I am looking for the recorded pIC50 of the following compound: `O=C(O)C1CCN(c2ncnc3[nH]ccc23)CC1`
Marked response: < 3.52

Exam item: Same question, O=C(O)C1CCCN(c2ncnc3[nH]ccc23)C1 (racemic) this time
Marked response: < 3.52
